Target: S1P1 (PathHunter CHO-K1 EDG1 β-Arrestin cell line) (Homo sapiens)
Sequence (P21453 whole entry): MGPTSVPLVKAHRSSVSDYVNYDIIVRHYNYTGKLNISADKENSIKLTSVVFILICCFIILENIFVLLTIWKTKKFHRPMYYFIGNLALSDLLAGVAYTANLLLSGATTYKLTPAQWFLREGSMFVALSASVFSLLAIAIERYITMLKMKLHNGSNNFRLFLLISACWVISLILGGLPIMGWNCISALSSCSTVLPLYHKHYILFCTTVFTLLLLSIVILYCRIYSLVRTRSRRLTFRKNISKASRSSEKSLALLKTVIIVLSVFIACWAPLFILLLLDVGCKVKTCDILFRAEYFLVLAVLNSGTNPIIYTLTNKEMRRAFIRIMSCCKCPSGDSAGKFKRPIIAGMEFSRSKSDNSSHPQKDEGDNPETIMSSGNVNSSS
Sequence (P32121 whole entry partner): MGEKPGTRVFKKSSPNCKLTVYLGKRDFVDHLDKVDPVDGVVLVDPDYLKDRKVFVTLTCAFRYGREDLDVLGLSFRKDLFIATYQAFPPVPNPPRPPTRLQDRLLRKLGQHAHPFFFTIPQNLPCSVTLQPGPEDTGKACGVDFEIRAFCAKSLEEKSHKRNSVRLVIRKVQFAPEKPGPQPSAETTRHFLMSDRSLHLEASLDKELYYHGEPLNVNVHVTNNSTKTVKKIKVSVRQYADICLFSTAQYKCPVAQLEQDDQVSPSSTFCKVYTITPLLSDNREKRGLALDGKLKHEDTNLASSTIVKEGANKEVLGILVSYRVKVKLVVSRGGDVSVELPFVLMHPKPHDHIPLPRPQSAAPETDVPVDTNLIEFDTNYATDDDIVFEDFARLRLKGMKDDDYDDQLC
Experiment: S1P-1 β-Arrestin recruitment assay
Details: CHO-K1 EDG1 β-Arrestin cells, chemi-luminescence
Structures can show the parent of a compound that is named as a salt.
observed_property: EC50

{"compound": "Cc1c(-c2noc(-c3ccc(OC(C)C)c(C#N)c3)n2)ccc2c1CCN(C(=O)CN[C@H](C)CO)C2", "result": "≤ 10 nM"}
{"compound": "CC(C)Oc1ccc(-c2nc(-c3ccc4c(c3)CCN(CCC(N)=O)CC4)no2)cc1C#N", "result": "≤ 10 nM"}
{"compound": "CC(C)Oc1ccc(-c2nc(-c3ccc4c(c3)CCN(C(=O)CN3CC(O)C3)CC4)no2)cc1C#N [Example 106, hydrochloride]", "result": "≤ 100 nM"}
{"compound": "Cc1c(-c2noc(-c3ccc(OC(C)C)c(C#N)c3)n2)ccc2c1CCN(CC(N)=O)C2", "result": "≤ 10 nM"}
{"compound": "CC(C)Oc1ccc(-c2nc(-c3ccc4c(c3)CCN(CC(=O)N[C@H](C)CO)CC4)no2)cc1C#N [Example 78, hydrochloride]", "result": "≤ 100 nM"}
{"compound": "CC(C)Nc1ncc(-c2nc(-c3ccc4c(c3)CCN(C[C@H](O)CO)CC4)no2)cc1C#N", "result": "≤ 100 nM"}
{"compound": "Cc1c(-c2nnc(-c3ccc(OC(C)C)c(C#N)c3)s2)ccc2c1CCN(CCC(N)=O)C2", "result": "≤ 10 nM"}
{"compound": "CC(C)Oc1ccc(-c2nc(-c3cccc4c3CCN(C(CO)CO)C4)no2)cc1C#N [Example 180, hydrochloride]", "result": "≤ 10 nM"}
{"compound": "Cc1c(-c2noc(-c3cnc(OC(C)C)c(C#N)c3)n2)ccc2c1CCN(C(=O)[C@@H](N)[C@@H](C)O)C2 [Example 79, hydrochloride]", "result": "≤ 10 nM"}
{"compound": "Cc1c(-c2noc(-c3ccc(OC(C)C)c(C#N)c3)n2)ccc2c1CCN(CC(=O)NC[C@@H](C)O)CC2", "result": "≤ 10 nM"}
{"compound": "Cc1c(-c2noc(-c3ccc(OC(C)C)c(Cl)c3)n2)ccc2c1CCN(C(=O)CNC(CO)CO)C2 [Example 190, hydrochloride]", "result": "≤ 100 nM"}
{"compound": "Cc1c(-c2noc(-c3ccc(OC(C)C)c(C#N)c3)n2)ccc2c1CCN(CCCC(N)=O)C2", "result": "≤ 10 nM"}
{"compound": "CNC(=O)CCCN1CCc2c(ccc(-c3noc(-c4ccc(OC(C)C)c(C#N)c4)n3)c2C)C1", "result": "≤ 10 nM"}
{"compound": "Cc1c(-c2noc(-c3ccc(OC(C)C)c(C#N)c3)n2)ccc2c1CCN(CCC(N)=O)C2", "result": "≤ 10 nM"}
{"compound": "Cc1c(-c2noc(-c3ccc(OC(C)C)c(C#N)c3)n2)ccc2c1CCN(CC(=O)N[C@@H](C)CO)CC2", "result": "≤ 10 nM"}
{"compound": "CC(C)Oc1ccc(-c2nc(-c3ccc4c(c3)CCN(C[C@@H](O)C(=O)NCCO)CC4)no2)cc1C#N [Example 164, hydrochloride]", "result": "≤ 10 nM"}
{"compound": "Cc1c(-c2noc(-c3ccc(OC(C)C)c(Cl)c3)n2)ccc2c1CCN(CC(=O)NCCO)C2 [Example 136, hydrochloride]", "result": "≤ 10 nM"}
{"compound": "N#Cc1cc(-c2nc(-c3ccc4c(c3)CCN(C[C@H](O)CO)CC4)no2)ccc1OCC(F)(F)F", "result": "≤ 100 nM"}
{"compound": "CC(C)Oc1ccc(-c2nc(-c3ccc4c(c3)CCN(CC(=O)NC[C@H](C)O)CC4)no2)cc1C#N [Example 75, hydrochloride]", "result": "≤ 10 nM"}
{"compound": "Cc1c(-c2noc(-c3cnc(OC(C)C)c(C#N)c3)n2)ccc2c1CCN(CC(=O)N[C@@H](C)CO)C2 [Example 170, hydrochloride]", "result": "≤ 10 nM"}
{"compound": "Cc1c(-c2noc(-c3ccc(OC(C)C)c(C#N)c3)n2)ccc2c1CCN(CCO)C2", "result": "≤ 10 nM"}
{"compound": "CC(C)Oc1ccc(-c2nc(-c3ccc4c(c3)CCN(C[C@@H](O)CO)CC4)no2)cc1C#N", "result": "≤ 100 nM"}
{"compound": "CC(C)Oc1ccc(-c2nc(-c3ccc4c(c3)CCN(CCCC(=O)N(C)C)CC4)no2)cc1C#N", "result": "≤ 10 nM"}
{"compound": "CCNC(=O)NCCN1CCc2ccc(-c3noc(-c4ccc(OC(C)C)c(C#N)c4)n3)cc2CC1", "result": "≤ 100 nM"}
{"compound": "Cc1c(-c2noc(-c3ccc(OC(C)C)c(C#N)c3)n2)ccc2c1CCN(C(=O)CCCN)C2 [Example 41, hydrochloride]", "result": "≤ 10 nM"}
{"compound": "CC(C)Oc1ccc(-c2nc(-c3ccc4c(c3)CCN(C(=O)CCN)CC4)no2)cc1C#N", "result": "≤ 10 nM"}
{"compound": "CC(C)Oc1ccc(-c2nnc(-c3ccc4c(c3)CCN(C(=O)CNCCO)CC4)s2)cc1C#N", "result": "≤ 10 nM"}
{"compound": "Cc1c(-c2noc(-c3ccc(OC(C)C)c(C#N)c3)n2)ccc2c1CCN(C(=O)CN[C@@H](C)CO)C2", "result": "≤ 10 nM"}
{"compound": "CC(C)Nc1ncc(-c2nc(-c3ccc4c(c3)CCN(C(=O)CN)CC4)no2)cc1C#N", "result": "≤ 100 nM"}
